Source: a melting point compilation (Tetko et al.; mined from patent text by program, amines drawn as free bases though some values may be those of a salt)

Give melting point for every item shown.

Before answering, review these 3 worked examples.
Cc1ccc(CN2C(=O)C(CCO)Oc3ccccc32)cc1 (centres undefined) = 92 to 94 °C
O=C(O)CCNC(=O)C(=Cc1ccc(-c2ccccc2)cc1)CS = 125 °C
COc1ccccc1Sc1c(NS(=O)(=O)c2ccc(C(C)(C)C)cc2)ncnc1OCCOC(=O)Nc1ccccn1 = 193 °C

Return reported melting point values for all items listed beneath this line.
1. O=C(c1ccc(O)cc1)c1c(-c2ccccc2)ccc2ccccc12
2. O=C(NCCO)C(Oc1ccc(F)c(C(F)(F)F)c1)c1ccc(Cl)cc1 (centres undefined)
3. Cn1c(=O)c2c(ncn2CCOC(=O)C(C)(C)Oc2ccc(Cl)cc2)n(C)c1=O
4. CCOC(=O)/C=C/c1ccc(N2CCC(=O)CC2)cc1
5. Cc1cc(C)c(Oc2cc(Nc3ccc(C#N)cc3)c([N+](=O)[O-])cc2[N+](=O)[O-])c(C)c1

[A]
1. 204 to 205 °C
2. 95 °C
3. 131 to 132 °C
4. 96 to 98 °C
5. 132 °C

[Q] Kindly indicate its recorded melting point. Item: `CNc1cc(S(=O)(=O)c2ccc(N)cc2)cc(Br)n1`
[A] 171 to 173 °C

====

Give melting point for every item shown.

Before answering, review these 2 worked examples.
Cc1cc2c(c(C)c1N)C(c1ccccc1)CO2 (stereo not given) = 127 to 128 °C
CN(C)c1cc2nc(C(C)(C)C)sc2cc1NC(N)=S = 275 to 280 °C

Return reported melting point values for all items listed beneath this line.
1. C#CCCCCCCCCC(=O)N[C@H]1CCCNC(=O)C1
2. O=C(C=C1CCCN1)c1ccc(Cl)c(Cl)c1
3. O=C1CCCN1C(=O)c1ccc(OCc2ccccc2)cc1
4. CCCCN(CC)CC(=O)N1c2ccccc2N(C)C(=O)c2cnc(-c3ccccc3)nc21
5. S=C1Nc2ccccc2Cc2nccn21
6. Cc1ccc(S(=O)(=O)OCCc2cccc3c(S(=O)(=O)c4ccccc4)c[nH]c23)cc1
7. CCCCOC(=O)Nc1ccc2cnn(Cc3ccc(C(=O)NS(=O)(=O)c4ccccc4)cc3OC)c2c1

[A]
73 to 75 °C
208 to 209 °C
115 to 117 °C
107 to 109 °C
182 to 183 °C
142 to 145 °C
153 to 154 °C

[Q] Kindly indicate its recorded melting point. Item: N#CC1(Nc2ccccc2)CCN(C2CCCc3ccccc32)CC1 (stereo not given)
[A] 152 to 153 °C

====

Give melting point for every item shown.

Before answering, review these 4 worked examples.
Cc1cc(-c2ccc(C(F)(F)F)nc2)cc(-c2cccc(-c3ccc(S(N)(=O)=O)s3)c2)n1 = 231 to 233 °C
CCCc1nc(C(=O)OC)c(C(=O)OC)n1Cc1ccc(-c2ccccc2-c2nnn[nH]2)cc1 = 124 to 126 °C
COC(=O)CC(=O)NCc1ccccc1 = 51 to 54 °C
CC1=C(CC(NC(=O)c2ccc(Cl)cc2)NC(=N[N+](=O)[O-])Nc2cccnc2)C(C)(C)CCC1 (stereo not given) = 217 to 218 °C

[Q] Kindly indicate its recorded melting point. Item: `COc1cc2c(nc1OC)c(-c1cc3c(Cl)c(F)cnc3[nH]1)cn2CCN1CCOCC1`
[A] 206 °C

====

Give melting point for every item shown.

Before answering, review these 4 worked examples.
CN(C)C(=O)c1ccc(CN(C)C(=O)C23CC4CC(CC(C4)C2)C3)s1 = 145 to 146 °C
CCCCc1ccc(NC=NO)c(C)c1 = 132 to 134 °C
CC(C)(C)c1ccc(CCOc2ccnc3c(F)cccc23)cc1 = 81 to 82 °C
Cc1ccc2oc3ccc(C)cc3c2c1 = 62 to 64 °C

Return reported melting point values for all items listed beneath this line.
1. CCCN1NC(c2ccc(OC)cc2)C2=C1C(=Cc1ccc(OC)cc1)CSC2 (stereo unspecified)
2. CC(N)=NC(=Nc1ccccc1)N1CCOCC1

[A]
["132 to 134 °C", "146 to 148 °C"]
